Each record here notes measured GI50.
- System: DU-145
- method summary: NCI tumour cell line growth inhibition, 48 h
Activity calls are given as the source filed them. Cut-off read from the data, not from the text of the source: active = GI50 up to about 1.1 µM and inactive = higher.

Input: Return reported GI50; argument: `COC(=O)c1cc(=O)nc2sc3cccc(C)c3n12`
Output: > 100 µM (inactive)

Input: Now try `CCCCCCCCCCCCc1ccsc1-c1ccc(-c2ccc(-c3sc(-c4cc(CCCCCCCCCCCC)c(-c5ccc(-c6ccc(-c7sccc7CCCCCCCCCCCC)s6)s5)s4)cc3CCCCCCCCCCCC)s2)s1` .
Output: > 100 µM (inactive)

====

- Tested on: MCF7
- method summary: NCI tumour cell line growth inhibition, 48 h
The source made the active and inactive calls. Rule as the data show it: active = GI50 up to about 1.1 µM and inactive = higher.
Returns: one label drawn from 1.0 (active), 0.0 (inactive)

Input: Entry `CC(=O)ON1C(=O)c2cccc3cccc(c23)C1=O` : call = ?
Output: 0.0

Taken from ChEMBL document CHEMBL1201862.
